B1: NETO1 (parent)
chain: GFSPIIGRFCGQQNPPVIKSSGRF

Variants of: B1
PROTOCOL_DETAILS: protein stability index of a GFP-peptide fusion (GPS, HEK-293T) (PSI 1-6); higher = more stable;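 also: lentivirally expressed fusions sorted by FACS into six bins by GFP to DsRed ratio, PSI derived from sequencing read proportions per bin multiplied by bin number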
CONDITION_INFO: c terminus: a fixed tail appended
OBSERVATION_TYPE: protein stability index
Format: numeric value only, no unit, no commentary.

The examples below pair each entry with its known result.
Request: Given `V17T` , state its recorded protein stability index.
Response: 2.05

Request: Given `G22S` , state its recorded protein stability index.
Response: 2

Request: Given `P15H` , state its recorded protein stability index.
Response: 2.01

Continuing:
Request: Given `G1S` , state its recorded protein stability index.
Response: 2.04
